experimental system: Plasmin
method notes: enzyme inhibition
reported metric: Ki
Answer format: number, then unit.

Query: Tell me measured Ki for KPI (-4-57) (peptide) LDKREVVREVCSEQAETGPCRAMISRWYFDVTEGKCAPFFYGGCGGNRNNFDTEEYCMAVCGSAI please.
Response: 34 nM
